Source: PubChem BioAssay (NCI)

# Tested on: SNB-19 CNS
# MEASUREMENT NOTES: NCI-60 one-dose screen, 48 h (100 = growth as untreated, 0 = no growth, -100 = all killed)
# RUN PARAMETERS: 10 µM unless noted
The panel holds about 83,000 compounds, 20% with a hit somewhere; the sample as a whole holds those more often.
Rule: measured growth below 70% gets True; anything equal to or greater than 70% gets False.

O=C(CNCCO)Nc1ccc2ncnc(Nc3ccc(OCc4cccc(F)c4)c(Cl)c3)c2c1    False

Does this compound meet the criterion growth < 70%? COc1ccc(C(O)c2cc3c(N)c(C(=O)Nc4ccc(Br)cc4)sc3nc2C)cc1 (centres undefined) True

Please give the result for c1ccc(CCSc2ncnc3nc[nH]c23)cc1 too. False

====

Recorded growth by entry
# System: NCI-H322M lung
# MEASUREMENT NOTES: NCI-60 one-dose screen, 48 h (100 = growth as untreated, 0 = no growth, -100 = all killed)
# RUN PARAMETERS: 10 µM unless noted
The panel holds about 83,000 compounds, 20% with a hit somewhere; the sample as a whole holds those more often.
Respond with the bare value in %.

Worked cases, answers included:
Fc1ccc(C2CC(c3cccc(Nc4ccncc4)c3)=NN2c2ccccc2)cc1 (stereo not given)    70.6
O=C1CCC(NC(=S)Nc2ccccc2)N1 (stereo not given)    99.5
C=CCn1c(SCC(=O)Nc2ccc(C(=O)/C=C/c3cc(OC)c(OC)c(OC)c3)cc2)nnc1-c1cc(OC)c(OC)c(OC)c1    85.5
CN1CCN(c2cc(F)c(NC3=C(Cl)C(=O)c4ncccc4C3=O)c(F)c2)CC1    102
O=C(O)c1ccc[n+](CC(=O)N2CCN(c3cc4c(cc3F)c(=O)c(C(=O)O)cn4C3CC3)CC2)c1    103

Bench note: what growth did c1ccc(N2N=C(c3cccc(Nc4ccncc4)c3)CC2c2ccc3c(c2)OCO3)cc1 (stereo not given) show? 42.7

Thanks! And CCOC(=O)c1c(SC)nn(-c2cc(=O)[nH]c3ccc(Br)cc23)c1N ? 106

Quick one: Fc1ccc(C2CC(c3cccc(Nc4ccncc4)c3)=NN2c2cc(Cl)cc(Cl)c2)cc1 (stereo not given) 73

Next: C=C(C)[C@@H]1CC[C@]2(C(=O)NCCCN(CCC#N)CCC#N)CC[C@]3(C)[C@H](CC[C@@H]4[C@@]5(C)CCC(=O)C(C)(C)[C@@H]5CC[C@]43C)[C@@H]12 104

Moving on to the next molecule: COc1ccc(NC(=O)c2sc3nc(C)c(C(O)c4ccc(OC)cc4)cc3c2N)cc1 (stereo not given) 51.3

====

# System: OVCAR-4 ovarian
# MEASUREMENT NOTES: NCI-60 one-dose screen, 48 h (100 = growth as untreated, 0 = no growth, -100 = all killed)
# RUN PARAMETERS: 10 µM unless noted
Compounds without any hit were thinned out: in the full panel of roughly 83,000, 20% have a hit.
As shown below, each of these compounds has a reported growth value.
Please state the figure in %; there is no need to write the unit.

The examples below pair each entry with its known result.
Cc1ccc(-c2csc(/N=C3\C(=O)Nc4ccccc43)n2)cc1    36
CCSc1ccc2c(c1)N(CCCN1CCN(C)CC1)c1ccccc1S2    61.2
C=C(C)[C@@H]1CC[C@]2(CO)CC[C@]3(C)[C@H](CC[C@@H]4[C@@]5(C)CCCNC(C)(C)[C@@H]5CC[C@]43C)[C@@H]12    31.8
COc1ccc(C(=O)c2cc(C)c(OC)c(C)c2)c(OC)c1O    41.1
C[C@]12C[C@H]1CC[C@]1(C)[C@@H]2CC[C@@]23C[C@H](CC[C@H]21)[C@@](O)(CO)C3    110
O=S(=O)(NCCNc1nccc(-c2c(-c3cccc(F)c3)nc3occn23)n1)c1cccc2ccccc12    47.8
Nc1nnc(C(=O)c2cnc3n(c2=O)CCCCC3)s1    111
CS(=O)(=O)OCCN(CCOS(C)(=O)=O)c1ccc(/C=N/Nc2ccc([N+](=O)[O-])cc2[N+](=O)[O-])cc1    93.1
C#CC(=O)Nc1cccc(Nc2nc3c(c(NCc4ccccc4)n2)CCCC3)c1    -95.3
CC(=O)NCCCS(=O)(=O)O    107

Please report the recorded growth for CNC(=O)c1c(NC(=O)c2ccc(C(C)C)cc2)sc2c(CN(C)C)c(O)ccc12 . 98.6

Same lookup for N#Cc1ccc(-c2ccc3c(c2)NC(=O)/C3=C\c2ccc[nH]2)cc1 , please. 43.3
